# ASSAYED_TARGET: PGD2 Receptor (Homo sapiens)
# Construct: endogenous in cells; host or cells: washed human platelets from a healthy volunteer
# MEASUREMENT_PROTOCOL: Antagonistic Activity Against PGD2 Receptor Using Human Platelet (cAMP increased by PGD2)
# Type: cell-based
# SETTINGS: inhibition of cAMP increase by 0.1 μM PGD2 in washed human platelets
QUANTITY_MEASURED: pIC50
Value format note: pIC50 is -log10 of concentration (mol/L); just state the number.

molecule="O=C(O)CCC/C=C\\C[C@H]1[C@@H]2CC[C@@H](C2)[C@@H]1NC(=O)c1csc2cc(O)ccc12 [Compd. 6]" experimental_result=8.09
molecule="O=C(O)CCC/C=C\\C[C@H]1[C@@H]2CC[C@@H](C2)[C@@H]1NC(=O)c1ccsc1 [Compd. 2]" experimental_result=6.44
molecule="O=C(O)CCC/C=C\\C[C@H]1[C@@H]2CC[C@@H](C2)[C@@H]1NC(=O)c1cccc2ccsc12 [Compd. 3]" experimental_result=7.66

Please find the next molecule below.
Lookup: Requested read-out: pIC50. Entry: O=C(O)CCC/C=C\C[C@H]1[C@@H]2CC[C@@H](C2)[C@@H]1NC(=O)c1csc2ccc(F)cc12 [Compd. 5]
Found: 7.47

====

# ASSAYED_TARGET: PGD2 Receptor (Homo sapiens, UniProt Q13258)
# Construct: endogenous in cells; host or cells: washed human platelets from a healthy volunteer
# Sequence (Q13258 whole entry): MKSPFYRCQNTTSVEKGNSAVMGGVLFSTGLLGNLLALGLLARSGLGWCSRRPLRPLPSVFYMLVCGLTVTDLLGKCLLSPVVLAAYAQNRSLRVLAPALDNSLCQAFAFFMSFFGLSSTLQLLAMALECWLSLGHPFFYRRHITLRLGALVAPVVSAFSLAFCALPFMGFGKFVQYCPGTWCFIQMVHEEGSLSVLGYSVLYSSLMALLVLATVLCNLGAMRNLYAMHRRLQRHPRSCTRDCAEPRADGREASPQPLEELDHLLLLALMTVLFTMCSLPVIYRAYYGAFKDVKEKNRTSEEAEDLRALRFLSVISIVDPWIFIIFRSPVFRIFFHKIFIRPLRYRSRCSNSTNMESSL
# MEASUREMENT_PROTOCOL: Binding to PGD2 Receptor (human platelet membrane fraction, [3H]PGD2)
# SETTINGS: 5 nM [3H]PGD2, pH 7.4, 4° C., 90 min, read-out: Inhibitory activity IC50
Reported values of log10(IC50) for individual entries
Transform log10 | Measure IC50 | Unit nM

structure_smiles_string=O=C(O)CCC/C=C\C[C@H]1[C@@H]2CC[C@@H](C2)[C@@H]1NC(=O)c1csc2ccc(F)cc12 experimental_result=1.76
structure_smiles_string=O=C(O)CCC/C=C\C[C@H]1[C@@H]2CC[C@@H](C2)[C@@H]1NC(=O)c1ccsc1 experimental_result=1.49

Lookup: Requested read-out: log10(IC50). Entry: O=C(O)CCC/C=C\C[C@H]1[C@@H]2CC[C@@H](C2)[C@@H]1NC(=O)c1csc2cc(O)ccc12
Found: 2.26

Lookup: Try O=C(O)CCC/C=C\C[C@H]1[C@@H]2CC[C@@H](C2)[C@@H]1NC(=O)c1csc2ccc(O)cc12 next.
Found: 0.98

====

# ASSAYED_TARGET: TXA2 Receptor (Homo sapiens, UniProt P21731)
# Construct: The human platelet fraction was prepared in accordance with Experiment 1 (1)
# Sequence (P21731 1-343): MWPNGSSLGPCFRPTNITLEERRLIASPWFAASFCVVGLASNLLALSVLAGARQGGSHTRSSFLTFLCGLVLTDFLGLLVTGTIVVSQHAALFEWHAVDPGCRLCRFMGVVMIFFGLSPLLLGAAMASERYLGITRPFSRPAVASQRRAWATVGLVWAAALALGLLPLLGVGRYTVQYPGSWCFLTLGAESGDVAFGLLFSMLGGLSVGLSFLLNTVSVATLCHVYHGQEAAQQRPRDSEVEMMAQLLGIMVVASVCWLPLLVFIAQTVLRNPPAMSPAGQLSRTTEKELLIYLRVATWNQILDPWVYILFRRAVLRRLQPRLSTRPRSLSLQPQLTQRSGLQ
# MEASUREMENT_PROTOCOL: Binding to TXA2 Receptor (human platelet membrane fraction, [3H](+)-S-145 sodium salt)
# SETTINGS: 2 nM [3H](+)-S-145 sodium salt, pH 7.4, room temperature, 90 min, read-out: Inhibitory activity to TXA2 Receptor: IC50
QUANTITY_MEASURED: IC50 (µM)
The response must be a number in µM with no trailing unit.

Lookup: Requested read-out: IC50. Entry: O=C(O)CCC/C=C\C[C@@H]1[C@H]2CC[C@H](C2)[C@H]1NC(=O)c1csc2ccc(O)cc12
Found: 1.8

Lookup: Try O=C(O)CCC/C=C\C[C@H]1[C@@H]2CC[C@@H](C2)[C@@H]1NC(=O)c1csc2ccccc12 next.
Found: 3.8
